Tested on: Streptococcus Pheumoniae ATCC6303
procedure-details: in vitro antibacterial activity, agar dilution MIC
Type: cell-based
Set-up: unit not given here
run-parameters: organism code XX, BHI agar, 35-37 °C, 20 to 24 hours
Procedure: Erythromycin A was used for this purpose. After incubation, each plate was visually inspected.
As shown below, each of these molecules has a reported minimum inhibitory concentration (MIC) value.
Could you keep your reply to the number by itself?

Give me measured minimum inhibitory concentration (MIC), please, for this molecule: CC[C@H]1OC(=O)[C@H](C)[C@@H](O[C@H]2C[C@@](C)(OC)[C@@H](O)[C@H](C)O2)[C@H](C)[C@@H](O[C@@H]2O[C@H](C)C[C@H](N(C)C)[C@H]2O)[C@@]2(C)C[C@@H](C)C(=O)[C@H](C)[C@H]3N(CCC=CCO2)C(=O)O[C@]13C [Example 17]
0.015

Return minimum inhibitory concentration (MIC) for the following molecule: CC[C@H]1OC(=O)[C@H](C)[C@@H](O[C@H]2C[C@@](C)(OC)[C@@H](O)[C@H](C)O2)[C@H](C)[C@@H](O[C@@H]2O[C@H](C)C[C@H](N(C)C)[C@H]2O)[C@@]2(C)C[C@@H](C)C(=O)[C@H](C)[C@H]3N(CC(O)CC=CCO2)C(=O)O[C@]13C (stereo partly drawn) [Example 19]
0.03

Give a short answer stating reported minimum inhibitory concentration (MIC) for CC[C@H]1OC(=O)[C@H](C)C(=O)[C@H](C)[C@@H](O[C@@H]2O[C@H](C)C[C@H](N(C)C)[C@H]2O)[C@@]2(C)C[C@@H](C)C(=O)[C@H](C)[C@H]3N(CCC=CCO2)C(=O)O[C@]13C [Example 18] .
1

Indicate its recorded minimum inhibitory concentration (MIC); the molecule in question is CC[C@H]1OC(=O)[C@H](C)[C@@H](O[C@H]2C[C@@](C)(OC)[C@@H](OC(C)=O)[C@H](C)O2)[C@H](C)[C@@H](O[C@@H]2O[C@H](C)C[C@H](N(C)C)[C@H]2O)[C@@]2(C)C[C@@H](C)C(=O)[C@H](C)[C@H]3N(CCNCc4cccc(c4)C=CCO2)C(=O)O[C@]13C [Example 10]
0.12

Give minimum inhibitory concentration (MIC) for the following molecule: CC[C@H]1OC(=O)[C@H](C)[C@@H](O[C@H]2C[C@@](C)(OC)[C@@H](O)[C@H](C)O2)[C@H](C)[C@@H](O[C@@H]2O[C@H](C)C[C@H](N(C)C)[C@H]2O)[C@@]2(C)C[C@@H](C)C(=O)[C@H](C)[C@H]3N(CCNCc4cccc(c4)C=CCO2)C(=O)O[C@]13C [Example 11]
0.12

Identify measured minimum inhibitory concentration (MIC) associated with CC[C@H]1OC(=O)[C@H](C)[C@@H](O[C@H]2C[C@@](C)(OC)[C@@H](O)[C@H](C)O2)[C@H](C)[C@@H](O[C@@H]2O[C@H](C)C[C@H](N(C)C)[C@H]2O)[C@](C)(O)C[C@@H](C)C(=O)[C@H](C)[C@@H](O)[C@]1(C)O [Ery. A, Erythromycin A, reference compound]
0.06

FYI, the data here is from patent EP1027361B1.
